tested on: COLO 205 colon; experiment: NCI-60 one-dose screen, 48 h; details: 10 µM unless noted
Compounds without any hit were thinned out: in the full panel of roughly 83,000, 20% have a hit. Calls of active or inactive are those of the source. The calls were made as follows: active = growth percent below 10; inactive = the rest.
Give your call using only these classes: active, inactive

The following compounds have reported results that may help.
CSCCC1NC(=O)C(C(C)=Nc2ccccc2)=C1O (configuration not stated)    inactive
CC1CN(CCCOC(=O)Nc2ccc(Cl)cc2)CCN1C(C)(C)C (configuration not stated)    inactive
O=C(CCc1nc2sc3c(c2c(=O)[nH]1)CCC3)NCc1cn(-c2ccccc2)nc1-c1ccccc1    inactive
CCCCNCC(O)c1cc2c(Cl)cc(Cl)cc2c2cc(C(F)(F)F)ccc12 (configuration not stated)    active
N#Cc1nc(-c2cccc(Br)c2)cc(-c2ccc(Nc3nc(N4CCCCC4)nc(N4CCCCC4)n3)cc2)c1N    active

Record request — test call for `COc1ccc(/C=C2\Cc3c(Br)cccc3C2=O)c(OC)c1` inactive

Record request — test call for `CCN(CC)C(Cl)=Nc1ccc(Cl)cc1` inactive

* * *

system: SK-MEL-28 melanoma; experiment: NCI-60 one-dose screen, 48 h (100 = growth as untreated, 0 = no growth, -100 = all killed); settings: 10 µM unless noted
About 83,000 compounds went through this panel and 20% of them were active in at least one assay; those are over-represented in the sample as a whole.
Listed here are molecules together with their documented growth.
Numeric answer only, unit % assumed.

Example results:
COC1=CC(c2ccc[nH]2)=N/C1=C\c1[nH]c(C)c(C(=O)CCCCCCCCC(=O)O[C@H]2CC[C@H]3C4CCc5cc(O)ccc5C4CC[C@]23C)c1C (some centres undefined)    34.5
C/C(=N\NC(=S)N1CCCCC1)c1ccccn1    37
COc1ccc(-c2nc(-c3cc(OC)cc(OC)c3)[nH]c2-c2ccc(OC)cc2)cc1    67.4

# ---- query molecule ----
Entry CCOc1c(C#N)c2c(N)ncnc2n1C1OC(CO)C(O)C1O (centres undefined) , growth reported as 20.4

* * *

test system: SW-620 colon; assay: NCI-60 one-dose screen, 48 h; conditions: 10 µM unless noted
Compounds without any hit were thinned out: in the full panel of roughly 83,000, 20% have a hit. Calls of active or inactive are those of the source. How the source made its calls: active means growth percent below 10; inactive means the rest.
Give your call using only these classes: active, inactive

The following molecules have reported results that may help.
CCOC(=O)c1sc2nc(-c3cc4ccccc4o3)cc(-c3ccc(Cl)cc3)c2c1N    inactive
O=C(Nc1cnc(C(F)(F)F)cn1)c1cc(Cl)ccc1O    inactive
COC1=CC(c2ccc[nH]2)=N/C1=C\c1[nH]c(C)c(C(=O)CCCCCCCCC(=O)O[C@H]2CC[C@H]3C4CCc5cc(O)ccc5C4CC[C@]23C)c1C (stereo not given in full)    active
N=C(N)c1ccc(-c2ccc(-c3cc(Cl)cc(Cl)c3)o2)nc1    active

Record request — test call for `COc1cccc2nc(Nc3cccc(NC(=O)c4ccc(N5CCN(C)CC5)c(C(F)(F)F)c4)c3)ccc12` active

Record request — test call for `COC(=O)CNS(=O)(=O)c1ccc2c(c1)Cc1cc(S(=O)(=O)NCC(=O)OC)ccc1-2` inactive

Record request — test call for COc1cc(NC(C)CCCN)c2ncccc2c1Sc1ccc(Cl)cc1 (stereo not given) active

Record request — test call for `c1ccc(C(CC2=NCCCN2)c2ccccc2)cc1` inactive

Record request — test call for `O=C1/C(=C\c2cccn2Cc2ccc(F)cc2)c2ccccc2N1c1c(Cl)cccc1Cl` inactive

Record request — test call for `Fc1ccc2c(CN3CCO[C@H](COc4cccc(Cl)c4)C3)c[nH]c2c1` inactive
